Settings: in acetonitrile, 288.15 K
assay metric: solubility (mole fraction)

{"columns": ["compound", "observed value"],
 "data": [
  ["CC1=C(O)C(=O)C(C)O1 (stereo unspecified)", 0.11]
]}

###

Settings: in methyl acetate, 308.15 K
assay metric: solubility (mole fraction)

{"columns": ["compound", "assay metric", "observed value"],
 "data": [
  ["CC1=C(O)C(=O)C(C)O1 (stereo unspecified)", "solubility (mole fraction)", 0.337]
]}

###

Conditions: in isopropanol, 313.15 K

{"columns": ["molecule", "solubility (mole fraction)"],
 "data": [
  ["CC1=C(O)C(=O)C(C)O1 (stereo unspecified)", 0.435]
]}

###

Conditions: in chloroform, 313.15 K
assay metric: solubility (mole fraction)

{"columns": ["compound", "observed value"],
 "data": [
  ["CC1=C(O)C(=O)C(C)O1 (stereo unspecified)", 0.479]
]}

###

Settings: in methyl acetate, 298.15 K

{"columns": ["compound", "solubility (mole fraction)"],
 "data": [
  ["CC1=C(O)C(=O)C(C)O1 (stereo unspecified)", 0.254]
]}

###

Details: in n-propyl acetate, 308.15 K
assay metric: solubility (mole fraction)

{"columns": ["molecule", "observed value"],
 "data": [
  ["CC1=C(O)C(=O)C(C)O1 (stereo unspecified)", 0.337]
]}

###

Conditions: in acetonitrile, 303.15 K

{"columns": ["compound", "solubility (mole fraction)"],
 "data": [
  ["CC1=C(O)C(=O)C(C)O1 (stereo unspecified)", 0.202]
]}

###

Settings: in isopropanol, 293.15 K
assay metric: solubility (mole fraction)

{"columns": ["compound", "observed value"],
 "data": [
  ["CC1=C(O)C(=O)C(C)O1 (stereo unspecified)", 0.272]
]}

###

Settings: in sec-butanol, 283.15 K

{"columns": ["molecule", "solubility (mole fraction)"],
 "data": [
  ["CC1=C(O)C(=O)C(C)O1 (stereo unspecified)", 0.128]
]}

###

Conditions: in acetone, 293.15 K

{"columns": ["compound", "solubility (mole fraction)"],
 "data": [
  ["CC1=C(O)C(=O)C(C)O1 (stereo unspecified)", 0.209]
]}

###

Settings: in acetone, 313.15 K

{"columns": ["molecule", "solubility (mole fraction)"],
 "data": [
  ["CC1=C(O)C(=O)C(C)O1 (stereo unspecified)", 0.381]
]}

###

Details: in cyclohexanone, 298.15 K

{"columns": ["molecule", "solubility (mole fraction)"],
 "data": [
  ["CC1=C(O)C(=O)C(C)O1 (stereo unspecified)", 0.225]
]}

###

Conditions: in methyl acetate, 303.15 K

{"columns": ["compound", "solubility (mole fraction)"],
 "data": [
  ["CC1=C(O)C(=O)C(C)O1 (stereo unspecified)", 0.292]
]}

###

Settings: in 1,4-dioxane, 313.15 K

{"columns": ["molecule", "solubility (mole fraction)"],
 "data": [
  ["CC1=C(O)C(=O)C(C)O1 (stereo unspecified)", 0.445]
]}

###

Settings: in methyl acetate, 293.15 K

{"columns": ["molecule", "solubility (mole fraction)"],
 "data": [
  ["CC1=C(O)C(=O)C(C)O1 (stereo unspecified)", 0.219]
]}

###

Conditions: in DMF, 293.15 K
assay metric: solubility (mole fraction)

{"columns": ["molecule", "observed value"],
 "data": [
  ["CC1=C(O)C(=O)C(C)O1 (stereo unspecified)", 0.336]
]}

###

Settings: in 1,4-dioxane, 293.15 K

{"columns": ["compound", "solubility (mole fraction)"],
 "data": [
  ["CC1=C(O)C(=O)C(C)O1 (stereo unspecified)", 0.282]
]}

###

Details: in chloroform, 298.15 K
assay metric: solubility (mole fraction)

{"columns": ["compound", "observed value"],
 "data": [
  ["CC1=C(O)C(=O)C(C)O1 (stereo unspecified)", 0.368]
]}

###

Conditions: in acetone, 303.15 K

{"columns": ["compound", "solubility (mole fraction)"],
 "data": [
  ["CC1=C(O)C(=O)C(C)O1 (stereo unspecified)", 0.284]
]}

###

Details: in cyclohexanone, 313.15 K

{"columns": ["molecule", "solubility (mole fraction)"],
 "data": [
  ["CC1=C(O)C(=O)C(C)O1 (stereo unspecified)", 0.372]
]}

###

Conditions: in dichloromethane, 293.15 K

{"columns": ["compound", "solubility (mole fraction)"],
 "data": [
  ["CC1=C(O)C(=O)C(C)O1 (stereo unspecified)", 0.219]
]}

###

Settings: in dichloromethane, 278.15 K
assay metric: solubility (mole fraction)

{"columns": ["molecule", "observed value"],
 "data": [
  ["CC1=C(O)C(=O)C(C)O1 (stereo unspecified)", 0.139]
]}

###

Conditions: in isopropanol, 308.15 K

{"columns": ["molecule", "solubility (mole fraction)"],
 "data": [
  ["CC1=C(O)C(=O)C(C)O1 (stereo unspecified)", 0.387]
]}

###

Conditions: in chloroform, 288.15 K
assay metric: solubility (mole fraction)

{"columns": ["molecule", "assay metric", "observed value"],
 "data": [
  ["CC1=C(O)C(=O)C(C)O1 (stereo unspecified)", "solubility (mole fraction)", 0.307]
]}

###

Settings: in 1,4-dioxane, 288.15 K
assay metric: solubility (mole fraction)

{"columns": ["compound", "observed value"],
 "data": [
  ["CC1=C(O)C(=O)C(C)O1 (stereo unspecified)", 0.248]
]}

###

Details: in chloroform, 303.15 K

{"columns": ["molecule", "solubility (mole fraction)"],
 "data": [
  ["CC1=C(O)C(=O)C(C)O1 (stereo unspecified)", 0.402]
]}

###

Conditions: in DMF, 308.15 K
assay metric: solubility (mole fraction)

{"columns": ["molecule", "observed value"],
 "data": [
  ["CC1=C(O)C(=O)C(C)O1 (stereo unspecified)", 0.439]
]}

###

Conditions: in DMF, 278.15 K
assay metric: solubility (mole fraction)

{"columns": ["compound", "observed value"],
 "data": [
  ["CC1=C(O)C(=O)C(C)O1 (stereo unspecified)", 0.256]
]}

###

Details: in isopropanol, 288.15 K

{"columns": ["compound", "solubility (mole fraction)"],
 "data": [
  ["CC1=C(O)C(=O)C(C)O1 (stereo unspecified)", 0.24]
]}

###

Settings: in chloroform, 278.15 K

{"columns": ["compound", "solubility (mole fraction)"],
 "data": [
  ["CC1=C(O)C(=O)C(C)O1 (stereo unspecified)", 0.256]
]}

###

Conditions: in 1,4-dioxane, 278.15 K
assay metric: solubility (mole fraction)

{"columns": ["compound", "observed value"],
 "data": [
  ["CC1=C(O)C(=O)C(C)O1 (stereo unspecified)", 0.192]
]}

###

Settings: in DMF, 303.15 K

{"columns": ["molecule", "solubility (mole fraction)"],
 "data": [
  ["CC1=C(O)C(=O)C(C)O1 (stereo unspecified)", 0.402]
]}

###

Conditions: in acetonitrile, 278.15 K

{"columns": ["compound", "solubility (mole fraction)"],
 "data": [
  ["CC1=C(O)C(=O)C(C)O1 (stereo unspecified)", 0.0733]
]}

###

Conditions: in dichloromethane, 313.15 K
assay metric: solubility (mole fraction)

{"columns": ["compound", "assay metric", "observed value"],
 "data": [
  ["CC1=C(O)C(=O)C(C)O1 (stereo unspecified)", "solubility (mole fraction)", 0.386]
]}

###

Conditions: in sec-butanol, 313.15 K

{"columns": ["compound", "solubility (mole fraction)"],
 "data": [
  ["CC1=C(O)C(=O)C(C)O1 (stereo unspecified)", 0.372]
]}

###

Settings: in dichloromethane, 283.15 K
assay metric: solubility (mole fraction)

{"columns": ["compound", "observed value"],
 "data": [
  ["CC1=C(O)C(=O)C(C)O1 (stereo unspecified)", 0.16]
]}

###

Details: in n-propyl acetate, 303.15 K

{"columns": ["compound", "solubility (mole fraction)"],
 "data": [
  ["CC1=C(O)C(=O)C(C)O1 (stereo unspecified)", 0.292]
]}

###

Details: in acetonitrile, 298.15 K

{"columns": ["compound", "solubility (mole fraction)"],
 "data": [
  ["CC1=C(O)C(=O)C(C)O1 (stereo unspecified)", 0.164]
]}

###

Details: in n-propyl acetate, 293.15 K
assay metric: solubility (mole fraction)

{"columns": ["compound", "observed value"],
 "data": [
  ["CC1=C(O)C(=O)C(C)O1 (stereo unspecified)", 0.219]
]}

###

Details: in 1,4-dioxane, 283.15 K

{"columns": ["compound", "solubility (mole fraction)"],
 "data": [
  ["CC1=C(O)C(=O)C(C)O1 (stereo unspecified)", 0.22]
]}

###

Settings: in 1,4-dioxane, 308.15 K
assay metric: solubility (mole fraction)

{"columns": ["compound", "observed value"],
 "data": [
  ["CC1=C(O)C(=O)C(C)O1 (stereo unspecified)", 0.4]
]}
